# Tested on: NCI-H23 lung
# Protocol Description: NCI tumour cell line growth inhibition, 48 h
What TGI was measured for each of the following?

Here is how some compounds turned out for TGI.
Compound	Test Target	Reported Result
O=C1/C(=C/c2ccc(Cl)cc2)N=C(c2ccccc2)N1/N=C/c1ccccc1O	NCI-H23 lung	> 100 µM
C#C[C@]1(O)[C@@H](CO)O[C@@H](n2ccc(N)nc2=O)[C@@H]1O	NCI-H23 lung	1.78 µM
Nc1nc(N)c2ncn(-c3ccccc3)c2n1	NCI-H23 lung	> 100 µM
CCOC(=O)C1=CNC(C(=O)OCC)C1c1cccn1-c1ccccc1 (stereo unspecified)	NCI-H23 lung	> 100 µM
CN(CSc1ccc(Cl)cc1)c1ccc(CSc2ccc(Cl)cc2)cc1	NCI-H23 lung	19.5 µM
O=c1c(O)cc2c(O)oc3c(=O)c(O)c(O)c4c(O)oc1c2c43	NCI-H23 lung	> 100 µM

State the recorded TGI for every item in the following list.
1. Cc1ccc(C(=O)N2CCCCC2)cc1N=NN(C)C
2. N#CCC1C2CC3C(C2=O)C13 (stereo unspecified)
3. O=C1c2cccnc2C(=O)c2c1c(C(=O)OCCc1ccccn1)c1ccccn21
4. NC(=N\N=C/c1ccc(Cl)cc1Cl)/C(N)=N\N=C/c1ccc(Cl)cc1Cl
5. COC(=O)CC(CNC(=O)OCc1ccccc1)OCc1ccc(OC)cc1 (stereo unspecified)

> 100 µM
> 100 µM
1.06 µM
> 100 µM
> 100 µM

====

# System: HCT-15 colon
# Protocol Description: NCI tumour cell line growth inhibition, 48 h
Endpoint: TGI

Here is how some compounds turned out for TGI.
Compound	Test Target	TGI
COc1ccccc1NC(=O)C(=O)Cc1cnc2ccccc2n1	HCT-15 colon	> 100 µM
S=C(Nc1ccc2c(c1)oc1ccccc12)c1cccs1	HCT-15 colon	> 100 µM
O=C1CCCC2=C1CC1=C(CCCC1=O)N2c1ccc([N+](=O)[O-])cc1	HCT-15 colon	> 100 µM

State the recorded TGI for every item in the following list.
1. CCOC(=O)/C(=C/c1ccccc1Br)P(=O)(OCC)OCC
2. CS(=N)(=O)CCC(N)P(=O)(O)O (stereo unspecified)
3. O=C(O)c1ccc(C(=O)O)c(C(=O)O)c1.[NH-]C1CCCCC1[NH-].[Pt+2]
4. C=C(CN1CCN(c2ccccc2C(F)(F)F)CC1)c1ccc(C(=O)Nc2ccccc2N)cc1
5. CSC1=C(C#N)C(=O)N(c2ccc(C)cc2)C(=O)C1C#N (stereo unspecified)
6. CC(=O)OCC1OC([Se-])C(OC(C)=O)C(OC(C)=O)C1OC(C)=O.N#CCC[PH+](CCC#N)CCC#N.[Au+] (stereo unspecified)

1. 5.87 µM
2. > 100 µM
3. 33.7 µM
4. > 100 µM
5. > 100 µM
6. 23.4 µM

State the recorded TGI for every item in the following list.
1. [N-]=[N+]=CC(=O)OCC1NC(=O)C(COC(=O)C=[N+]=[N-])NC1=O (stereo unspecified)
2. Cn1c(NCC(CN2CCCC2)OC(=O)c2ccccc2)cc(=O)n(C)c1=O (stereo unspecified)

> 100 µM
> 100 µM

====

What TGI was measured for each of the following?
# System: NCI-H226 lung
# Protocol Description: NCI tumour cell line growth inhibition, 48 h

Compound	TGI
N#Cc1ccc(C(C2C(=O)NC(=O)NC2=O)C2C(=O)NC(=O)NC2=O)cc1	> 100 µM
CCC(c1ccc(OC)cc1)C1NC(=S)NC1=O (stereo not drawn)	> 50 µM
O=C(CCc1ccc(O)c(O)c1)NCCc1cc(O)c(O)c(O)c1	> 100 µM

State the recorded TGI for every item in the following list.
1. O=C(O)c1ccc(Oc2nc3ccccc3s2)cc1
2. CCCCCCc1cc2cc(-c3csc(/C=C/c4ccccc4)n3)c(=O)oc2cc1O
3. C(=N\NC1=NCCN1)/c1cccc2cc3ccncc3nc12
4. CN(C)CCN(C)C(=O)C1CCCN1C(=O)OCc1ccccc1 (stereo not drawn)
5. CCc1ccc(Nc2cc(=O)n(C)c(SCc3ccccc3)n2)cc1
6. COc1ccccc1NC(=O)C(=O)Cc1cnc2ccccc2n1
7. CN(C)c1ccc(/C=c2\sc3nnc(-c4cccnc4)n3c2=O)cc1

1. > 100 µM
2. 33.4 µM
3. 21.2 µM
4. > 100 µM
5. > 100 µM
6. > 100 µM
7. > 100 µM

State the recorded TGI for every item in the following list.
1. Cc1ccc(NC(=O)c2nc(S(C)(=O)=O)oc2-c2ccc(F)cc2)cc1Nc1ccc2ncn(C)c(=O)c2c1
2. O=C(O)C1=CN(c2ccncc2)C(c2ccco2)=CC1c1ccccc1[N+](=O)[O-] (stereo not drawn)

1. 5.52 µM
2. 38.3 µM

State the recorded TGI for every item in the following list.
1. N#CCC1C2CC3C(C2=O)C13 (stereo not drawn)
2. CC(Cc1cccc2c1Nc1ccccc1S2)N(C)CCO (stereo not drawn)
3. [N-]=[N+]=CC(=O)OCC1NC(=O)C(COC(=O)C=[N+]=[N-])NC1=O (stereo not drawn)
4. OCC1OC(n2cnc3c(SCc4ccccc4)ncnc32)C(O)C1O (stereo not drawn)
5. COC1=CC(=O)c2c(cc3c(c2O)-c2c(OC)cc4cc5c(c(O)c4c2OC(=O)CC(C)(O)C3)C(=O)CC(C)(O)C5)C1=O (stereo not drawn)
6. Cc1c2ccccc2c(C2C3C(=O)N(c4cccc5ccccc45)C(=O)C3ON2Cc2ccc(CC(N)=O)cc2)c2ccccc12 (stereo not drawn)
7. Cn1c(NCC(CN2CCCC2)OC(=O)c2ccccc2)cc(=O)n(C)c1=O (stereo not drawn)

> 100 µM
> 100 µM
> 100 µM
> 100 µM
4.08 µM
46.5 µM
> 100 µM

State the recorded TGI for every item in the following list.
1. CC(C)COP(C)(=O)C(N)(C(F)(F)F)C(F)(F)F (stereo not drawn)
2. C=C1c2[nH]c3ccccc3c2CC(C(=O)O)N1C(O)c1ccc(S(=O)(=O)O)cc1 (stereo not drawn)
3. COC(=O)c1ccc(C)cc1C1CN=NC12Cc1cc(C)ccc1C2=O (stereo not drawn)
4. CCc1nc2ccccc2c(=O)n1/N=C(\N=Nc1ccc(Cl)cc1)c1ccccc1

1: > 100 µM; 2: > 100 µM; 3: 88 µM; 4: 63.4 µM
